# Tested on: Saccharomyces cerevisiae
# Protocol summary: protein stability index of tFT-peptide fusion (C-terminal peptide) (PSI (0-1 scale)); higher = more stable (slower turnover)
# Experimental context: genetic background: cdc34-1; temperature: 37 C
Recorded protein stability index by entry
# print the numeric value only

# Macromolecule sequence, Tested system, Property, Reading
data = [
    ("VCPCCPYVMIAG", "Saccharomyces cerevisiae", "protein stability index", 0.598),
    ("KFFRSWVLTSPA", "Saccharomyces cerevisiae", "protein stability index", 0.585),
    ("FFFLPLFLVLSL", "Saccharomyces cerevisiae", "protein stability index", 0.239),
    ("AFVVPLFLCCCG", "Saccharomyces cerevisiae", "protein stability index", 0.184),
    ("YRNVLLVLNYWS", "Saccharomyces cerevisiae", "protein stability index", 0.447),
    ("FHLFIRRSAVIF", "Saccharomyces cerevisiae", "protein stability index", 0.493),
    ("GCCFVCSVFWWG", "Saccharomyces cerevisiae", "protein stability index", 0.407),
    ("PTLPASLHSIYP", "Saccharomyces cerevisiae", "protein stability index", 0.654),
]

(Q) Give protein stability index (Saccharomyces cerevisiae) of the following sequence: GCWRVELLVFMC
(A) 0.0459

(Q) // same read-out, input: FSSFLGFIRFFV
(A) 0.661

(Q) Moving on to the next sequence: VWWWGGVGWLMV
(A) 0.571

(Q) Continue with GLLAFVCISHTS
(A) 0.497

(Q) Entry CASVCCFFAWIV please
(A) 0.571

(Q) Could you do the same for TSFSSGEALGVG , please?
(A) 0.437

(Q) Next record, please: VLDFSVPRHVLH
(A) 0.696

(Q) Same thing, different sequence: WVRIIIKLRASL
(A) 0.444

---

# Test system: Saccharomyces cerevisiae
# Protocol summary: protein stability index of tFT-peptide fusion (C-terminal peptide) (PSI (0-1 scale)); higher = more stable (slower turnover)
# Experimental context: genetic background: wild type; temperature: 30 C
Property: protein stability index
I'd appreciate a reply containing only the number, no unit.

For orientation, consider the following solved cases.
# Macromolecule sequence, Tested system, Reading
data = [
    ("YNRALPGGQAML", "Saccharomyces cerevisiae", 0.795),
    ("ASSVVGLEERVR", "Saccharomyces cerevisiae", 0.728),
    ("VHAGVLTMADPT", "Saccharomyces cerevisiae", 0.653),
]

(Q) Give its protein stability index value. Item: PPVRRPAHATTG
(A) 0.722

(Q) Try this sequence next: LPPPIPPPLSLA
(A) 0.703

(Q) What would you report for DIYGYENNIIKN ?
(A) 0.708

(Q) Next sequence up: GSVRLLDNLQRL
(A) 0.663

---

# Test system: Saccharomyces cerevisiae
# Protocol summary: protein stability index of tFT-peptide fusion (C-terminal peptide) (PSI (0-1 scale)); higher = more stable (slower turnover)
# Experimental context: genetic background: das1 deletion; temperature: 30 C
# binarize protein stability index: threshold 0.7 inclusive, high side T, low side F

# Macromolecule sequence, Group label
rows = [
    ("VESKFTEKIKSM [RPC19 C-terminal 12 aa]", "F"),
]

(Q) Evaluate RDNQIPDKEIGI [CAF16 C-terminal 12 aa] : protein stability index at minimum 0.7?
(A) F

(Q) Now try PISHVNNNDTHA [SLM3 C-terminal 12 aa] .
(A) T

(Q) And the next one, YLKRCCYHPMQN [YIL020C-A C-terminal 12 aa] ?
(A) T

(Q) Now try GCVRSMLRDLQR [GCR2 C-terminal 12 aa] .
(A) F

(Q) And then HIDIPDFAKWDI [SUL2 C-terminal 12 aa] , what is it?
(A) T

(Q) Again, but for VWKRARVDLIAS [POL12 C-terminal 12 aa]
(A) F

(Q) One more sequence: TFAKSSRNKSKL [PCS60 C-terminal 12 aa]
(A) T

(Q) Ok, now DFNDSSNLKKTR [CLN3 C-terminal 12 aa]
(A) T

---

# Tested on: Saccharomyces cerevisiae
# Protocol summary: protein stability index of tFT-peptide fusion (C-terminal peptide) (PSI (0-1 scale)); higher = more stable (slower turnover)
# Experimental context: genetic background: wild type; temperature: 30 C
Property: protein stability index

# Macromolecule sequence, Tested system, protein stability index
data = [
    ("GQLAERYRPARP", "Saccharomyces cerevisiae", 0.69),
    ("SPRSPPSTSSPQ", "Saccharomyces cerevisiae", 0.68),
    ("PDVNEATPKLWC", "Saccharomyces cerevisiae", 0.694),
]

Continue with the next sequence.
(Q) Item under review: RVLLYWRGSGVL . Reported protein stability index?
(A) 0.577

---

Consider the following sequences and their measured protein stability index readings.
# Test system: Saccharomyces cerevisiae
# Protocol summary: protein stability index of tFT-peptide fusion (C-terminal peptide) (PSI (0-1 scale)); higher = more stable (slower turnover)
# Experimental context: genetic background: das1 deletion; temperature: 30 C

Worked examples follow.
# Macromolecule sequence, protein stability index
measured = [
    ("EAASDEHFSRVV [YGL185C C-terminal 12 aa]", 0.709),
    ("ERDNWWVVAQKR [TRM9 C-terminal 12 aa]", 0.744),
    ("FDAVTKTLEKYA [YKR070W C-terminal 12 aa]", 0.68),
    ("RSRKWKRRLFHL [PEX32 C-terminal 12 aa]", 0.825),
    ("LKHFIKVFSSKL [ARR1 C-terminal 12 aa]", 0.825),
]

(Q) Please give the measured protein stability index for this sequence: KQNIPRKPNVDI [BNS1 C-terminal 12 aa]
(A) 0.687

(Q) Next up: AQGEKDAAATAN [TOM22 C-terminal 12 aa]
(A) 0.677

(Q) Please give the result for RNVYSTKTRCIE [TDA10 C-terminal 12 aa] too.
(A) 0.681

(Q) What about this sequence? VACNPVAMADHQ [TUS1 C-terminal 12 aa]
(A) 0.71

(Q) Queued: DKLGFLDRRRNE [COI1 C-terminal 12 aa]
(A) 0.683

---

# Tested on: Saccharomyces cerevisiae
# Protocol summary: protein stability index of tFT-peptide fusion (C-terminal peptide) (PSI (0-1 scale)); higher = more stable (slower turnover)
# Experimental context: genetic background: wild type; temperature: 30 C
Measured protein stability index values are reported for all entries that follow.
Give the figure by itself; no unit, no explanation.

(Q) So what does the record say about protein stability index for FKWSGGGRGVGP ?
(A) 0.679

---

# System: Saccharomyces cerevisiae
# Protocol summary: protein stability index of tFT-peptide fusion (C-terminal peptide) (PSI (0-1 scale)); higher = more stable (slower turnover)
# Experimental context: genetic background: das1 deletion; temperature: 30 C
Measured protein stability index determines class: class 0: < 0.3; class 1: ≥ 0.3 and < 0.5; class 2: ≥ 0.5

# Macromolecule sequence, Group label
measured = [
    ("PFRSAYYLLFLL", "class 2"),
    ("PPRDPGGLFTPF", "class 2"),
    ("KRARVIWKLVVV", "class 1"),
    ("WSWCLDVVCFTS", "class 1"),
    ("RRVRVVCVIVAA", "class 0"),
]

Okay, next one:
(Q) The entry to classify is LWCLVWGGVWGV ; which class holds it?
(A) class 1

---

# System: Saccharomyces cerevisiae
# Protocol summary: protein stability index of tFT-peptide fusion (C-terminal peptide) (PSI (0-1 scale)); higher = more stable (slower turnover)
# Experimental context: genetic background: wild type; temperature: 30 C
Reported protein stability index values follow for various sequences
The reply should be a number, written without any unit.

# Macromolecule sequence, Tested system, protein stability index
rows = [
    ("AVCVVVMAVFVG", "Saccharomyces cerevisiae", 0.3),
]

(Q) Test system Saccharomyces cerevisiae; read-out protein stability index; what value for ASWRYMFPVTLG ?
(A) 0.306

(Q) Another: WDEVVAIVVCPV
(A) 0.3

(Q) Also, CGSFWVNVLCAV please.
(A) 0.299

---

# Tested on: Saccharomyces cerevisiae
# Protocol summary: protein stability index of tFT-peptide fusion (C-terminal peptide) (PSI (0-1 scale)); higher = more stable (slower turnover)
# Experimental context: genetic background: das1 deletion; temperature: 37 C
Please map values of protein stability index to classes as shown: b0 = under 0.5, b1 = from 0.5 up to 0.7, b2 = 0.7 and over

Observe how each entry below is paired with its result.
# Macromolecule sequence, Tested system, Group label
records = [
    ("FLLLVFGLLIDS", "Saccharomyces cerevisiae", "b0"),
    ("WCGLFCRSVFVV", "Saccharomyces cerevisiae", "b0"),
    ("FSFPIIFFGMFL", "Saccharomyces cerevisiae", "b1"),
    ("RVFGWIEVEVEG", "Saccharomyces cerevisiae", "b1"),
    ("RKGQNKKRNKIY", "Saccharomyces cerevisiae", "b2"),
    ("GGGWGVFVVLWW", "Saccharomyces cerevisiae", "b0"),
    ("LGRLDYKRMKRA", "Saccharomyces cerevisiae", "b2"),
    ("FVLLTFLFFWQF", "Saccharomyces cerevisiae", "b0"),
    ("FLCLLSLFFLDF", "Saccharomyces cerevisiae", "b1"),
    ("HHACLLPVRKAG", "Saccharomyces cerevisiae", "b2"),
]

(Q) Where would SWSLRLSTIFSV land among the classes by reported protein stability index?
(A) b1

(Q) Now try LFFFSFSFLFFL .
(A) b0

(Q) Would you kindly repeat that for PLFFGVQAFGGV ?
(A) b2

(Q) What would you report for LRNYKCLRLLIC ?
(A) b1

(Q) Likewise for FYLFPSLPLLLL ?
(A) b1
